Biological target: NS3h 2a (JFH1)
Assay: NS3 helicase inhibitors across HCV genotypes, late-stage follow-up, selectivity assay for HCV NS3 helicase inhibitor project, biochemical, real-time fluorescence, genotypes 2a and 1b, Set 2 (AID 504419)
Details: Recombinant NS3 helicase, real-time fluorescence unwinding
The source made the active and inactive calls. The rule behind the calls is not given here.
The categories you may choose from are active, inactive

Input: Tell me the recorded outcome of this test for `Cc1ccc2nc(-c3ccc4nc(-c5ccc(NC(=O)c6ccc7nc(-c8ccc(N)cc8)sc7c6)cc5)sc4c3)sc2c1S(=O)(=O)O` .
Output: active

Input: Tell me the assay call for `O=C(c1ccc2nc(-c3ccco3)c(-c3ccco3)nc2c1)N1CCN(c2ccccc2)CC1` please.
Output: inactive

Input: Per the assay record, what outcome was assigned to `N#C/C(=C\c1ccc(O)c(O)c1)S(=O)(=O)c1ccccc1` ?
Output: inactive

====

Kindly state IC50 for each of the entries shown.
Target: NS3h 2a (JFH1)
Assay: NS3 helicase inhibitors across HCV genotypes, late-stage follow-up, selectivity assay for HCV NS3 helicase inhibitor project, biochemical, real-time fluorescence, genotypes 2a and 1b, Set 2 (AID 504419)
Conditions: Recombinant NS3 helicase, real-time fluorescence unwinding
Active and inactive are the calls of the source. The rule behind the calls is not given here.

Input: Tell me reported IC50 for `COc1ccc(C(=O)Nc2ccc(-c3nc4ccc(-c5nc6ccc(C)c(S(=O)(=O)O)c6s5)cc4s3)cc2)cc1` , tested with NS3h 2a (JFH1).
Output: 5.7 µM

Input: Hi! What's the reported IC50 for `O=C(NC(=S)Nc1ccc(-c2ccc(CO)o2)cc1)c1cccs1` on NS3h 2a (JFH1)?
Output: > 100 µM (inactive)

Input: Lab note: need IC50 for `COc1cc2oc(=O)cc(-c3ccc(-c4ccc(NC(C)=O)cc4)cc3)c2c(OC)c1OC` on NS3h 2a (JFH1), anyone have it?
Output: > 100 µM (inactive)

Input: Form field: IC50 recorded for `Cc1ccc(NC(=O)Nc2ccc(-c3nc4ccc(-c5nc6ccc(C)c(S(=O)(=O)O)c6s5)cc4s3)cc2)cc1` with NS3h 2a (JFH1) (enter value)
Output: 3.21 µM

Input: Please provide the recorded IC50 for `Cc1ccc2nc(-c3ccc4nc(-c5ccc(NC(=O)c6ccc(N)cc6)cc5)sc4c3)sc2c1S(=O)(=O)O` , tested on NS3h 2a (JFH1).
Output: 4.39 µM

Input: Missing value: IC50, NS3h 2a (JFH1), entry COc1cc(Br)cc(C2C(C(=O)c3ccc(C)o3)=C(O)C(=O)N2Cc2ccco2)c1OC (stereo unspecified) . Fill in?
Output: > 100 µM (inactive)

Input: Param readout = IC50; param system = NS3h 2a (JFH1); param query = `Cc1ccc2nc(-c3ccc(NC(=S)Nc4ccccc4Br)cc3)sc2c1` ; response: value
Output: > 100 µM (inactive)

Input: Request - read-out IC50 | tested on NS3h 2a (JFH1) | compound `Nc1c(C(=O)Nc2ccccc2F)sc2nc(-c3ccco3)ccc12`
Output: > 100 µM (inactive)

Input: Please tell me: IC50 of `Cc1ccc2nc(-c3ccc4nc(-c5ccc(NC(=O)c6ccc(C(C)(C)C)cc6)cc5)sc4c3)sc2c1S(=O)(=O)O` , system NS3h 2a (JFH1)?
Output: 4.96 µM

Input: Give recorded IC50 with NS3h 2a (JFH1) for the following compound: `Cc1ccc2nc(-c3ccc4nc(-c5ccc(NC(=O)c6ccc7ccccc7c6)cc5)sc4c3)sc2c1S(=O)(=O)O`
Output: 1.71 µM
